- particulars: in ethyl acetate, 313.15 K
measurement_name: solubility (mole fraction)

[1] COc1cc(C=O)ccc1O
[2] O=C(O)/C=C/c1ccc(O)cc1
solubility (mole fraction) comparison. Which is larger, 1 or 2 ? To answer, give the label that identifies your chosen option.
1

====

- particulars: in ethyl acetate, 288.15 K
measurement_name: solubility (mole fraction)

[1] COc1cc(C=O)ccc1O
[2] O=C(O)/C=C/c1ccc(O)cc1
// select label with min value of measured solubility (mole fraction) from [ 1 , 2 ] To answer, give the label that identifies your chosen option.
2
(2: 0.0101, 1: 0.115)

====

- particulars: in ethyl acetate, 298.15 K
measurement_name: solubility (mole fraction)

[I] O=C(O)/C=C/c1ccc(O)cc1
[II] COc1cc(C=O)ccc1O
solubility (mole fraction) comparison. Which is larger, I or II ? To answer, give the label that identifies your chosen option.
II
(II: 0.125, I: 0.0129)

====

- particulars: in ethanol, 308.15 K
measurement_name: solubility (mole fraction)

[P] COc1cc(C=O)ccc1O
[Q] O=C(O)/C=C/c1ccc(O)cc1
// select label with min value of measured solubility (mole fraction) from [ P , Q ] To answer, give the label that identifies your chosen option.
Q

====

- particulars: in ethanol, 283.15 K
measurement_name: solubility (mole fraction)

[P] O=C(O)/C=C/c1ccc(O)cc1
[Q] COc1cc(C=O)ccc1O
solubility (mole fraction) comparison. Which is larger, P or Q ? To answer, give the label that identifies your chosen option.
Q
